# systemTested: HDAC 6 (Homo sapiens, UniProt Q9UBN7)
# Sequence (Q9UBN7 whole entry): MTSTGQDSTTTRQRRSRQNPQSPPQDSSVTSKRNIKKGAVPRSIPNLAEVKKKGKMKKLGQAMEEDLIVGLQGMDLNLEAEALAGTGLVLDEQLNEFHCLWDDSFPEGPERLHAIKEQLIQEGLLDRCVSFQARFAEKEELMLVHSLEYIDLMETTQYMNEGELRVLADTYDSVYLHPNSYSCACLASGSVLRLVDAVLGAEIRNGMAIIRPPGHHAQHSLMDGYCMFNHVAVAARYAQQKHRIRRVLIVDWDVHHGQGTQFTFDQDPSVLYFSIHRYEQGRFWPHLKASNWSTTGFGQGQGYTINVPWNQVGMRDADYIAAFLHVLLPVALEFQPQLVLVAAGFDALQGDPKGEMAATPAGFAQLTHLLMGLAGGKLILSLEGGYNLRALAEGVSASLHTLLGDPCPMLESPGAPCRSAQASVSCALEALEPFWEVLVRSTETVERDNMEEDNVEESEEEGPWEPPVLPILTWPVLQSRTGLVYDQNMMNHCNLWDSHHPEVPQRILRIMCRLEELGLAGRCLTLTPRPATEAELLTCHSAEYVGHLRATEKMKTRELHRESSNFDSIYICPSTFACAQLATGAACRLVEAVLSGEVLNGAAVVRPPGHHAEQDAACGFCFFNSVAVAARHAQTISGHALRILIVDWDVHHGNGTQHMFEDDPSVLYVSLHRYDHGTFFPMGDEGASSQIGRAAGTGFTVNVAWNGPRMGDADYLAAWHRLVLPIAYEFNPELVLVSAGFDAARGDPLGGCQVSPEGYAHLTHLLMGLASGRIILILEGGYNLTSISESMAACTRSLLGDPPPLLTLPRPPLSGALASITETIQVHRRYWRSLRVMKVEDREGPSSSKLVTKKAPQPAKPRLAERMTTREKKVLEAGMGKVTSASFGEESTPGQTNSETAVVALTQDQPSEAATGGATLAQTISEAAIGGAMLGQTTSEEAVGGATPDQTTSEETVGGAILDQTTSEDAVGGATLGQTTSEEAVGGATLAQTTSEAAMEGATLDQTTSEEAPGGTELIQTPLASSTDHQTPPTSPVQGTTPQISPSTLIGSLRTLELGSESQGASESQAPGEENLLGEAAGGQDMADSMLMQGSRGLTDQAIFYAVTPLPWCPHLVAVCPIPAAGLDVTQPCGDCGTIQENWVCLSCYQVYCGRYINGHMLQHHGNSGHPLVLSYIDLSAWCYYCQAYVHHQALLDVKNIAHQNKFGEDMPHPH
# procedureDetails: HDAC 6 activity at fixed concentration (Table 2)
# Format: biochemical
# Set-up: unit not given here
# conditionParameters: compound at 50 nM
propertyName: HDAC 6 at 50 nM

Recorded HDAC 6 at 50 nM of O=C(NO)C1CCc2cccc(NS(=O)(=O)CC(F)(F)F)c2O1 (centres unmarked) [Compound 1-31] , please. 41

Recorded HDAC 6 at 50 nM of O=C(NO)C1CCc2ccc(OCc3ccc(C(F)(F)F)cc3)cc2O1 (centres unmarked) [Compound 1-20] , please. 32

I: O=C(NO)C1CCc2cc(Cl)ccc2O1 (centres unmarked) [Compound 1-1]
II: O=C(Nc1cccc2c1OC(C(=O)NO)CC2)OCc1ccc(C(F)(F)F)cc1 (centres unmarked) [Compound 1-42]
III: CS(=O)(=O)Nc1cccc2c1OC(C(=O)NO)CC2 (centres unmarked) [Compound 1-37]
IV: Cc1ccc(S(=O)(=O)Nc2cccc3c2OC(C(=O)NO)CC3)cc1 (centres unmarked) [Compound 1-38]
Reorder: HDAC 6 at 50 nM, max to min. Hello, could you send the labels back in the order asked? Thank you. I, IV, II, III
(I: 33, IV: 21, II: 14, III: 2)

a: O=C(NO)[C@H]1CCc2ccccc2O1 [Compound 1-4]
b: O=C(COc1ccccc1Cl)Nc1cccc2c1O[C@H](C(=O)NO)CC2 [Compound 1-53]
Given a and b , report the one with the higher recorded HDAC 6 at 50 nM. The response must carry the label of the picked entry. a

1: O=C(NO)C1CCc2cc(C#CCCC(=O)N3CCc4ccccc4C3)ccc2O1 (centres unmarked) [Compound 1-19]
2: O=C(NO)[C@@H]1CCc2ccc(-c3ccc(Cl)c(Cl)c3)cc2O1 [Compound 1-61]
Given 1 and 2 , report the one with the higher recorded HDAC 6 at 50 nM. The response must carry the label of the picked entry. 2
